experiment: Oral bioavailability in cynomologus monkey at 5 mg/kg measured upto 24 hrs by LC-MS/MS analysis; format: ADME, organism-based, Macaca fascicularis; conditions: cynomolgus monkey, in vivo
property_measured: bioavailability (%)
Numbers only, in %.

Report bioavailability for N#Cc1ccc(COc2cccc(C3CCN(Cc4nc5ccc(C(=O)O)cc5n4C[C@@H]4CCO4)CC3)n2)c(F)c1 please.
5

###

These records show EC50 for Glucagon-like peptide 1 receptor (Homo sapiens, UniProt P43220).
Answers are plain numbers, in µM.

>>> print(df.to_string())
                         structure_notation  readout_unit  quantitative_readout
0  Cn1c(CN2CCC(c3cccc(OCc4ccc(Cl)cc4F)n3)CC2)nc2nccc(NCC(=O)O)c21            µM                   4.6
1  Cn1c(CN2CCC(c3cccc(OCc4ccc(Cl)cc4F)n3)CC2)nc2ccc(C(=O)O)nc21            µM                 0.095

Below are 2 molecules. Give each one its EC50.
1. Cn1c(CN2CCC(c3cccc(OCc4ccc(Cl)cc4F)n3)CC2)nc2ccncc21
2. CCn1cncc1Cn1c(CN2CCC(c3cccc(OCc4ccc(F)cc4F)n3)CC2)nc2ccc(C(=O)O)cc21

1: 2.6; 2: 0.00075

###

target: Glucagon-like peptide 1 receptor (Homo sapiens); experiment: Agonist activity at human GLP-1R expressed in CHO-K1 cells assessed as cAMP accumulation by measuring maximum efficacy at 20 uM incubated for 30 mins in presence of BETP by BETP sensitized time-resolved fluorescence assay relative to control; assay type: functional, cell-based; details: filed as agonist
Sequence (P43220 whole entry): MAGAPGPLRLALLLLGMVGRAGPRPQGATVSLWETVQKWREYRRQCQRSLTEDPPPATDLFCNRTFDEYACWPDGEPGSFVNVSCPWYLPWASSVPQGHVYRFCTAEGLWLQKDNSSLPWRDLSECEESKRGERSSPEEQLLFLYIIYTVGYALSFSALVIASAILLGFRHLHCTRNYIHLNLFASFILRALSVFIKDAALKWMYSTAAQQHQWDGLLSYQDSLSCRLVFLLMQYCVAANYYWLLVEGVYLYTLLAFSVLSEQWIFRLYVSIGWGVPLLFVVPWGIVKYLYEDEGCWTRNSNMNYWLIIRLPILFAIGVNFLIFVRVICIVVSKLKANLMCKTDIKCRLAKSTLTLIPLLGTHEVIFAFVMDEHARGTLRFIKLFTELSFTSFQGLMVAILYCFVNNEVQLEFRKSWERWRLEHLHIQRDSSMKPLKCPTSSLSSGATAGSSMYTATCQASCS
Kindly state Emax for each of the entries shown.
Numbers only, in %.

Below, 3 compounds whose answers are already recorded.
>>> df
                         structure_notation  property_measured  quantitative_readout
0  Cn1c(CN2CCC(c3cccc(OCc4ccc(Cl)cc4F)n3)CC2)nc2nccc(NCC(=O)O)c21               Emax                    90
1  Cn1c(CN2CCC(c3cccc(OCc4ccc(Cl)cc4F)n3)CC2)nc2ccncc21               Emax                    86
2  N#Cc1ccc(COc2cccc(C3CCN(Cc4nc5ccc(C(=O)O)cc5n4C[C@@H]4CCO4)CC3)n2)c(F)c1               Emax                   110

Below: the item to evaluate.
Query: Emax; subject: Cn1c(CN2CCC(c3cccc(OCc4ccc(Cl)cc4F)n3)CC2)nc2ccc(C(=O)O)nc21
84

###

pEC50: −log10 of the molar value.
Test system Glucagon-like peptide 1 receptor (Homo sapiens, UniProt P43220), pEC50 listed for each of the compounds.

In [3]: df
Out[3]:
                         structure_notation                             system_tested  property_measured  result
0  Cn1c(CN2CCC(c3cccc(OCc4ccc(Cl)cc4F)n3)CC2)nc2nccc(NCC(=O)O)c21  Glucagon-like peptide 1 receptor (Homo sapiens, UniProt P43220)              pEC50  < 4.70

Look up pEC50 for the entries below, preserving their order.
1. Cn1c(CN2CCC(c3cccc(OCc4ccc(Cl)cc4F)n3)CC2)nc2ccncc21
2. Cn1c(CN2CCC(c3nc(OCc4ccc(Cl)cc4F)ncc3F)CC2)nc2ccccc21

1. < 4.70
2. < 4.70

Cited source for all entries: ChEMBL document CHEMBL5154938
